system: COR-L311 (Small Cell Lung Carcinoma); assay: combination Emax (second highest fraction inhibited in the dose matrix, 72 h); higher = more inhibition; extreme values may be limits of the assay
attribute-measured: combination Emax
Numbers only.

[
  {
    "compound": "Cn1cnc2c(F)c(Nc3ccc(Br)cc3Cl)c(C(=O)NOCCO)cc21 [Selumetinib] + C[C@@H]1COCCN1C2=NC(=NC(=C2)C3(CC3)[S@](=N)(=O)C)C4=C5C=CNC5=NC=C4 [AZD6738] (first compound max 10 µM, 7x7, partner max 10 µM)",
    "combination Emax": 0.32
  }
]

Request: Please tell me the measured combination Emax for NC1(C(=O)N[C@@H](CCO)c2ccc(Cl)cc2)CCN(c2ncnc3[nH]ccc23)CC1 [Capivasertib] + COc1nnc2ccc(N3CCC(c4ccc(OCCN5CCN(C)C(=O)[C@H]5C)cc4)CC3)nn12 [AZD5153] (first compound max 10 µM, 7x7, partner max 1 µM) ; system: COR-L311 (Small Cell Lung Carcinoma).
Response: 1
